Source listed as patent US20160289747.

# Test target: T1, gp32 single-stranded DNA binding protein (Enterobacteria phage T4, UniProt P03695 P03695:1-301)
# T1 sequence: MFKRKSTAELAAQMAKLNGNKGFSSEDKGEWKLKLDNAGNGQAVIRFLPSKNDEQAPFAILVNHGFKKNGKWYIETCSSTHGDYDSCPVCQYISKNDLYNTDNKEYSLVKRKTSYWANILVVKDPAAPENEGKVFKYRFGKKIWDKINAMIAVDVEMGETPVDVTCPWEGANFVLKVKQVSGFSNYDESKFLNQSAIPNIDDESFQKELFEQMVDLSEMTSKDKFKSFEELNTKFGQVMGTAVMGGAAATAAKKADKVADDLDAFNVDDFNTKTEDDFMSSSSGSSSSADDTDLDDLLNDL
# Experiment summary: little or no fluorescence increase
# Protocol conditions: tags: New England Biolabs; label: fluorophore and quencher
# Description: The effect of the single-strand binding protein, bacteriophage T4 gp32 (New England Biolabs), on signal from the same oligonucleotide probes used with UvsX was also elucidated. […]

{"Binder": "AGCCGAUGACUAAUGC (ssRNA, 2'-OMe) [2'-O-methyl RNA 16]", "binding result": "no binding"}
{"Binder": "AGUUGAUGUGUA (XNA, LNA) [LNA 12]", "binding result": "no binding"}
{"Binder": "ACGAAAGCCGAUGACUAAUGC (ssRNA, 2'-OMe) [2'-O-methyl RNA 21]", "binding result": "no binding"}
